- Test system: glutamate-induced oxidative stress injury of HT22 cells (谷氨酸诱导的HT22细胞氧化应激损伤)
- Assay overview: Protection of HT22 cells against glutamate-induced oxidative stress injury (LDH release, cell viability)
- Assay type: cell-based
- Conditions used: HT-22, HT22 mouse hippocampal neuronal cells, 15 mM glutamate, 24 h, 10 concentrations, 0.25% DMSO
# EC50 values compiled below
Supply the numeric figure in nM, leaving out any unit text.

Look over these answered cases.
{"Smiles string": "Cc1ccc(N(/N=C/c2ccc3c(c2)OCO3)C(=O)C(F)(F)F)c(C)c1", "Measured target": "glutamate-induced oxidative stress injury of HT22 cells (谷氨酸诱导的HT22细胞氧化应激损伤)", "Unit string": "nM", "EC50": 130}
{"Smiles string": "CC(=O)N(/N=C/c1ccc2c(c1)OCO2)c1ccc(C)cc1C", "Measured target": "glutamate-induced oxidative stress injury of HT22 cells (谷氨酸诱导的HT22细胞氧化应激损伤)", "Unit string": "nM", "EC50": 4120}

We now examine a further molecule.
# get_value(readout='EC50', item= `Cc1ccc(N(/N=C/c2ccc(Cl)cc2Cl)C(=O)C(F)(F)F)c(C)c1` )
130
